Compiled literature pKi, tested on Retinoic acid receptor beta (Homo sapiens).
- Target Or Test System: Retinoic acid receptor beta (Homo sapiens)
- Sequence (P10826 whole entry): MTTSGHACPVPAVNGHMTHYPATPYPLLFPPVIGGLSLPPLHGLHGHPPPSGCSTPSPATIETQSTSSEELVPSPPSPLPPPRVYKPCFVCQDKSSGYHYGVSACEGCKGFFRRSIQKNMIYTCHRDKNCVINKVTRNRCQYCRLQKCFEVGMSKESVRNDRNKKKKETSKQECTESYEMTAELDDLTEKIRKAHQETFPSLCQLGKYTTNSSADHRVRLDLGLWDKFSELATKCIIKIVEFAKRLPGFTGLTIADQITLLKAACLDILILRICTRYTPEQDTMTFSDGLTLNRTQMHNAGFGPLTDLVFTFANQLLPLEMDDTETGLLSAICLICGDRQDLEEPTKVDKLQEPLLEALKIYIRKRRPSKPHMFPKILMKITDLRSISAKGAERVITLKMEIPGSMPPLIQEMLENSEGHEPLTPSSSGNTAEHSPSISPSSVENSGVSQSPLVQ
pKi: −log10 of the molar value.

Field request: pKi | item: C=C1C[C@H](c2ccc3c(c2)C(C)(C)CCC3(C)C)[C@@H](/C=C/C(C)=C/C(=O)O)C1
< 6.00

Recorded pKi of CC(C)(C)c1cc(C2=Cc3ccc(C(=O)O)cc3OC2)cc(C(C)(C)C)c1O , please.
< 5.52

Which pKi is reported for this compound? CC(/C=C/C1=C(c2cc(C(C)C)cc(C(C)C)c2OCCCF)CCC1)=C\C(=O)O
5.08

Requested field: pKi. Item: CC(/C=C/C1=C(c2cc3c(cc2C)C(C)(C)CCC3(C)C)CCC1)=C\C(=O)O
< 6.00

Name the reported pKi value associated with the compound CC(/C=C/c1ccccc1-c1cc(C(C)C)cc(C(C)C)c1OCC(F)F)=C\C(=O)O
< 5.00
